# Measured on: Microtubule-associated serine/threonine-protein kinase 3 (Homo sapiens, UniProt O60307)
# Sequence (O60307 whole entry): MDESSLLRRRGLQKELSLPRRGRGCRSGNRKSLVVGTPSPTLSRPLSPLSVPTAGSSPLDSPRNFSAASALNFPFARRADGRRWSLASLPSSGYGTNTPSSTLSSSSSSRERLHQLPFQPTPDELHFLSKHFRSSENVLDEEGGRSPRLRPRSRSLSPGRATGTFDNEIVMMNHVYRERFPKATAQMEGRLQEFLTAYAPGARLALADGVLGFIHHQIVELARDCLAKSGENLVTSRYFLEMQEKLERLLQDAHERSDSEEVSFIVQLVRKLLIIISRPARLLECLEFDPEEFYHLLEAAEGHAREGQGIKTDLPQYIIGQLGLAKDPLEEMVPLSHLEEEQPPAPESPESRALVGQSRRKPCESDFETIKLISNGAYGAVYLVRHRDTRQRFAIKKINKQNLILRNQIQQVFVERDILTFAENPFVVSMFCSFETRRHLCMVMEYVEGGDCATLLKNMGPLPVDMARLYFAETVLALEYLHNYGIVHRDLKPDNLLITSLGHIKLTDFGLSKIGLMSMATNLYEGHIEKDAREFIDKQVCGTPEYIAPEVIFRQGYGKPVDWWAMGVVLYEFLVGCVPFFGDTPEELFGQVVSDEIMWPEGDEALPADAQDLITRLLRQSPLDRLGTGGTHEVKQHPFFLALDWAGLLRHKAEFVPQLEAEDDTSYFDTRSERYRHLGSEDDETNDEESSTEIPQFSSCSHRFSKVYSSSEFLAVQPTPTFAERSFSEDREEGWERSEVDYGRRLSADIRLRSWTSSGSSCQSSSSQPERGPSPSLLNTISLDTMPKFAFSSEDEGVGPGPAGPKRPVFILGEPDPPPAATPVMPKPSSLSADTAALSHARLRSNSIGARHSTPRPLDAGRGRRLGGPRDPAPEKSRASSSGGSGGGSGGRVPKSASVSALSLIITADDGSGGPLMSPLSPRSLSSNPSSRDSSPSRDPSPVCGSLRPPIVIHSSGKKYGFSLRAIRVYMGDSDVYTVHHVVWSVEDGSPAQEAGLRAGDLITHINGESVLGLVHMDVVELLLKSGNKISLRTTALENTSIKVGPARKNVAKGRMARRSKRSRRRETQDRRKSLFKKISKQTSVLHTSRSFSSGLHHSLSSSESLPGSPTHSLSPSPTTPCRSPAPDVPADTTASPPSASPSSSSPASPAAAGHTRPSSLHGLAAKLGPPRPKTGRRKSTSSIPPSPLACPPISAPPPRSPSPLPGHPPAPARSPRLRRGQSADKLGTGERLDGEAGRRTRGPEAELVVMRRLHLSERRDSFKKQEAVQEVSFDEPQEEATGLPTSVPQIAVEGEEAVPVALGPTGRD
# Assay method text: Inhibition of MAST3 in human PC3 cell lysates at 10 uM using desthiobiotin-tagged ATP probe AX9989 followed by trypsinization by LC/MS analysis
# Condition info: PC-3
Value kind: inhibition (%)

O=C(NC1(c2ccccc2)CC1)c1ccc2nc(N[C@H]3CC[C@H](O)CC3)c3nccn3c2c1    98.9
C[C@@H](NC(=O)c1ccc2nc(N[C@H]3CC[C@H](O)CC3)c3nccn3c2c1)c1ccccc1    97
C[C@H](NC(=O)c1ccc2nc(N[C@H]3CC[C@H](O)CC3)c3nccn3c2c1)c1ccccc1    76.3
